Data origin, for the record: PubChem BioAssay

measurement protocol: small-molecule binders of probe aLefty1, primary screen, biochemical, small-molecule microarray, 635/667 nm fluorescence (AID 1153);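 also: score merges spot fluorescence with signal-to-noise ratio from the scanned slide images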
applied conditions: higher = more signal
readout: composite z-score

# annotated cases, reported composite z-score shown
structure smiles	composite z-score
COCCOC(=O)N1C(=O)[C@@]2(c3cc(C#CCC(C(=O)OC)C(=O)OC)ccc31)[C@H](c1ccc(OCCO)cc1)N1[C@H](c3ccccc3)[C@H](c3ccccc3)OC(=O)[C@H]1[C@@H]2C(=O)Nc1nc2ccccc2s1	0.129
C=C(CCCC)C(=O)CC[C@H](OC(=O)c1ccccc1-c1ccccc1C(=O)O)c1ccccc1OCCO	-0.0984

Using known records, supply composite z-score for NCCCCCNC(=O)[C@H]1C[C@H]2C(=O)N[C@@H](Cc3ccccc3)C(=O)N2[C@H]1c1ccc(O)cc1
1.01

Using known records, supply composite z-score for COCCOC(=O)N1C(=O)[C@@]2(c3cc(C#CC4=CCCCC4)ccc31)[C@H](C(=O)N1CCCCCCC1)[C@H]1C(=O)O[C@H](c3ccccc3)[C@H](c3ccccc3)N1[C@@H]2c1ccc(OCCO)cc1
1.88

Using known records, supply composite z-score for O=C(N1CCOCC1)[C@@]1(CCS(=O)(=O)c2ccccc2)N=C(c2ccc(OCCCO)cc2)O[C@H]1c1ccccc1
0.446

Using known records, supply composite z-score for O=C1C[C@@](C(=O)NCC(F)(F)F)(c2ccc([N+](=O)[O-])cc2)[C@@H](c2ccc(CO)cc2)N1CC12CC3CC(CC(C3)C1)C2
0.282
